Tested on: SK-BR-3
Assay: Inhibition of cells growth by colorimetric (SRB) assay, SK-BR-3
Details: Homo sapiens, SK-BR-3, 48 h, read-out: SK-BR-3 GI50, SRB assay, 48 hours exposure
For each entry below, report its GI50 value.
Your answer should be a plain number; it is taken to be in nM.

Annotate the compound "CSc1nccc(-c2c3c(N)ccnc3n3c(N)nccc23)n1.Cl" with its measured GI50.
326

Annotate the compound "CSc1nccc(-c2c3c(Cl)ccnc3n3c(N)nccc23)n1.Cl" with its measured GI50.
5620

Annotate the compound CSc1nccc(-c2c3cc4ccccc4nc3n3c(N)nccc23)n1 [Compound 18a] with its measured GI50.
1340

Annotate the compound "CSc1nccc(-c2c3ccc(C)nc3n3c(N)nccc23)n1" with its measured GI50.
1240

Annotate the compound "Cl.Nc1nccc(-c2c3c(Cl)ccnc3n3c(N)nccc23)n1" with its measured GI50.
575

Annotate the compound "CSc1nccc(-c2c3c(O)ccnc3n3c(N)nccc23)n1.Cl" with its measured GI50.
1920

Annotate the compound "Cl.Nc1nccc(-c2c3c(O)ccnc3n3c(N)nccc23)n1" with its measured GI50.
530

Annotate the compound "CS(=O)(=O)c1nccc(-c2c3cccnc3n3c(N)nccc23)n1" with its measured GI50.
2080

Annotate the compound "CSc1nccc(-c2c3cccnc3n3c(N)nccc23)n1.Cl" with its measured GI50.
641

Annotate the compound "CSc1nccc(-c2c3cccnc3n3c(NC(C)=O)nccc23)n1" with its measured GI50.
1230

Annotate the compound "CSc1nccc(-c2c3cccnc3n3c(N(C(C)=O)C(C)=O)nccc23)n1" with its measured GI50.
4180

Annotate the compound Nc1nccc(-c2c3cccnc3n3c(N)nccc23)n1 [Deoxyvariolin 4, deoxyvariolin B, reference compound] with its measured GI50.
73.6
